Test system: HCT-116
Experiment: cells
Details: Homo sapiens
Description: Inhibitory concentration against HCT 116 human colon cancer cell line
Measured Parameter: IC50 (µg/mL)

# count of solved cases: 3
COC(=O)CCc1cc(O)ccc1O    4.59
COC(=O)/C=C/c1cc(O)c2c(c1O)C(=O)c1ccccc1C2=O    0.65
CCCOC(=O)/C=C/c1ccc(O)c(O)c1    2.12

[P] COC(=O)/C=C/c1ccc(OC)c(O)c1
[Q] CCOC(=O)/C=C/c1ccc(O)c(O)c1 [ETHYL CAFFEATE]
[R] CCOC(=O)/C=C/c1cc(O)c2c(c1O)C(=O)c1ccccc1C2=O
[S] COC(=O)/C=C/c1ccc(O)c(O)c1 [METHYLCAFFEATE]
Arrange these 4 compounds in increasing order of IC50. // list labels; follow requested order
R, Q, S, P

[A] O=C(/C=C/c1ccc(O)c(O)c1)Nc1ccccc1
[B] COC(=O)/C=C/c1cc(O)ccc1O
Of A and B , which one carries the higher reported IC50? Select an item and report its label.
A

----------
Test system: A-431
Experiment: cells
Conditions: Homo sapiens
Description: Inhibitory concentration required against A 431 human epidermoid carcinoma cell line
Measured Parameter: IC50 (mg/L)

# count of solved cases: 3
COC(=O)/C=C/c1cc(O)c2c(c1O)C(=O)c1ccccc1C2=O    0.87
COC(=O)/C=C/c1cc(O)ccc1O    0.15
O=C(/C=C/c1ccc(O)c(O)c1)Nc1ccccc1    5

[A] COC(=O)CCc1cc(O)ccc1O
[B] CCOC(=O)/C=C/c1cc(O)c2c(c1O)C(=O)c1ccccc1C2=O
[C] CCCOC(=O)/C=C/c1ccc(O)c(O)c1
Arrange these 3 compounds in increasing order of IC50. // list labels; follow requested order
B, C, A
(B: 0.91 mg/L, C: 1.89 mg/L, A: 5 mg/L)

----------
Tested on: A-431
Experiment: cells
Details: Homo sapiens
Measured Parameter: IC50 (µg/mL)

CCOC(=O)/C=C/c1ccc(O)c(O)c1 [ETHYL CAFFEATE]    1.81
COC(=O)/C=C/c1ccc(O)c(O)c1 [METHYLCAFFEATE]    1.79

----------
# Lookup of reported IC50 keyed by entry
Test system: A-431
Experiment: cells
Settings: Homo sapiens

# count of solved cases: 2
COC(=O)/C=C/c1ccc(OC)c(O)c1    > 30 µg/mL
COC(=O)/C=C/c1ccc2c(c1)OCO2    > 30 µg/mL

# input for lookup
Could you share which IC50 value was measured for COC(=O)/C=C/c1ccc(OC)c(OC)c1 ?
> 30 µg/mL
